# procedure_summary: Compound was evaluated for the inhibition of RANTES-induced migration of human monocytes
# Format: functional
observable: IC50 (nM)
Enter your answer as a number in nM; do not include the unit.

CSCC[C@H](NC(=O)c1cc(C(=CCC[C@H]2CC[C@@]3(C)C(CC[C@H]4[C@@H]5CC[C@H](C(C)CCCC(C)C)[C@@]5(C)CC[C@@H]43)C2)c2cc(Cl)c(O)c(C(=O)N[C@@H](CCSC)C(=O)O)c2)cc(Cl)c1O)C(=O)O (some centres undefined)	820
CC(C)CCCC(C)[C@H]1CC[C@H]2[C@@H]3CCC4C[C@@H](CCC=C(c5cc(Cl)c(OCc6cccc([N+](=O)[O-])c6)c(C(=O)O)c5)c5cc(Cl)c(OCc6cccc([N+](=O)[O-])c6)c(C(=O)O)c5)CC[C@]4(C)[C@H]3CC[C@]12C (some centres undefined)	3500
CC(C)CCCC(C)[C@H]1CC[C@H]2[C@@H]3CCC4C[C@@H](CCC=C(c5cc(Cl)c(OCc6cccc(C(=O)O)c6)c(C(=O)O)c5)c5cc(Cl)c(OCc6cccc(C(=O)O)c6)c(C(=O)O)c5)CC[C@]4(C)[C@H]3CC[C@]12C (some centres undefined)	10000

Next:
Req: Which IC50 value belongs to CC(C)CCCC(C)[C@H]1CC[C@H]2[C@@H]3CCC4C[C@@H](CCC=C(c5cc(Cl)c(OCc6cccc(B(O)O)c6)c(C(=O)O)c5)c5cc(Cl)c(OCc6cccc(B(O)O)c6)c(C(=O)O)c5)CC[C@]4(C)[C@H]3CC[C@]12C (some centres undefined) ?
Resp: 2200
